target: DNA topoisomerase 1 (Homo sapiens) (UniProt P11387); assay: Topoisomerase I DNA relaxation activity was evaluated by Agarose Gel Electrophoresis test at concentration 100 uM; details: Escherichia coli
Sequence (P11387 whole entry): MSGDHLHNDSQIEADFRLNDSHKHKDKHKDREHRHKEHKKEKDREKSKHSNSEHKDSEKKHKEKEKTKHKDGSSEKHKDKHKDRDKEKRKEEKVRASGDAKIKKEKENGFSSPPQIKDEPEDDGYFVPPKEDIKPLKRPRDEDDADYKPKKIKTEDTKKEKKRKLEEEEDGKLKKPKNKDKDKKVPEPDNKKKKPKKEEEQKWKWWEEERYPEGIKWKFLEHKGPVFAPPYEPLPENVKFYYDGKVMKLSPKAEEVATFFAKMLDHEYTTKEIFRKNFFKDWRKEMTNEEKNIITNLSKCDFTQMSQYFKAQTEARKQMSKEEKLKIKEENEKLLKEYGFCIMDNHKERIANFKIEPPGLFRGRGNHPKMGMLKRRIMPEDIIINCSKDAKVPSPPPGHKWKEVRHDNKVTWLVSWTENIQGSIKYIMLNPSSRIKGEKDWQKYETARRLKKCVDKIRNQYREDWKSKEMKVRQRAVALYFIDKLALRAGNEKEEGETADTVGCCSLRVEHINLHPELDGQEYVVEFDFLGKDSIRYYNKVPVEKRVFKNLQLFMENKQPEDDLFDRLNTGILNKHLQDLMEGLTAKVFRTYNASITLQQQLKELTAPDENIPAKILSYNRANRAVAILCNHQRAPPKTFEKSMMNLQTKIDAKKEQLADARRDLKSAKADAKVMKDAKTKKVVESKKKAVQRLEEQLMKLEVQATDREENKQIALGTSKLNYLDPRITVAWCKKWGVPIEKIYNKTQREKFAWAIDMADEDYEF
Result type: inhibition (%)
The reply should be a number in %, with the unit left off.

Task: Query inhibition for COC(=O)c1cc(NC(=O)c2cc(NC(=O)c3cc(NC(=O)Cn4cc(C5=C(c6c[nH]c7ccccc67)C(=O)NC5=O)c5ccccc54)cn3C)cn2C)cn1C
Output: 0

Task: Query inhibition for COC(=O)c1cc(NC(=O)c2cc(NC(=O)Cn3cc(C4=C(c5c[nH]c6ccccc56)C(=O)NC4=O)c4ccccc43)cn2C)cn1C
Output: 0

Task: Query inhibition for CN(C)CCCNC(=O)c1cc(NC(=O)c2cc(NC(=O)Cn3cc(C4=C(c5c[nH]c6ccccc56)C(=O)NC4=O)c4ccccc43)cn2C)cn1C
Output: 50

Task: Query inhibition for CN(C)CCCNC(=O)c1cc(NC(=O)c2cc(NC(=O)c3cc(NC(=O)Cn4cc(C5=C(c6c[nH]c7ccccc67)C(=O)NC5=O)c5ccccc54)cn3C)cn2C)cn1C
Output: 75

Task: Query inhibition for COC(=O)c1cc(NC(=O)Cn2cc(C3=C(c4c[nH]c5ccccc45)C(=O)NC3=O)c3ccccc32)cn1C
Output: 0

Source listed as ChEMBL document CHEMBL1129036.
